# System: KB-3-1
# ASSAY_METHOD_TEXT: Cytotoxic Profiling of Annotated Libraries Using Quantitative High-Throughput Screening (AID 1296008); note: nearly all actives have a fitted effect of over 60% in size
# MEASUREMENT_PARAMETERS: Five cell lines viability, CellTiter-Glo ATP luminescence, 48-72 h
# Procedure: Cell-based phenotypic screening is a commonly used approach to discover biological pathways, novel drug targets, chemical probes and high-quality hit-to-lead molecules. […] A pintool (Kalypsys) was used to transfer 23 nL of compound solution to the 1536-well assay plates. […] Plates were left at room temperature for 10 min before imaging the ATP-coupled luminescence using a ViewLux microplate imager (PerkinElmer, Waltham, MA).
Results filed as inconclusive are left out. The source made the active and inactive calls. Calls come from the whole dose curve; as a rule, active = well fitted inhibition curve with a large enough effect; inconclusive = small, poorly fitted or top-dose-only effect; inactive = flat fitted curve, though single readings scatter.
Log the outcome using a class from active, inactive

- C#CCN(Cc1cc2c(=O)[nH]c(C)nc2cc1Br)c1ccc(C(=O)NCc2cccnc2)cc1: active

Assay outcome for CC[C@]1(O)CC2CN(CCc3c([nH]c4ccccc34)[C@@](C(=O)OC)(c3cc4c(cc3OC)N(C=O)[C@H]3[C@@](O)(C(=O)OC)[C@H](OC(C)=O)[C@]5(CC)C=CCN6CC[C@]43[C@@H]65)C2)C1 (stereo partly drawn) : what was it? active

Assay outcome for CC(C)(C)NS(=O)(=O)c1cncc(-c2cc(F)c3nc(N)nn3c2)c1 : what was it? inactive

Assay outcome for COC(=O)CCSCc1ccc(-c2onc(C)c2NC(=O)OC(C)c2ccccc2Cl)cc1 (stereo not drawn) : what was it? inactive

Assay outcome for CC1(C)CC[C@]2(C(=O)O[C@@H]3O[C@H](CO)[C@@H](O)[C@H](O)[C@H]3O)CC[C@]3(C)C(=CCC4[C@@]5(C)C[C@@H](O)[C@H](O)[C@](C)(C=O)C5CC[C@]43C)[C@@H]2[C@@H]1O (stereo partly drawn) : what was it? inactive

Assay outcome for O=C1NC2CCc3nc4ccccc4c(=O)n3C2=Nc2ccccc21 (stereo not drawn) : what was it? inactive

Assay outcome for CC(C)C[C@H](CC(=O)NO)C(=O)N[C@H](C(=O)N[C@@H](C)C(=O)NCCN)C(C)(C)C : what was it? inactive

Assay outcome for CC(=O)OC1C(O)C2C(C)C3=CC(=O)OC3(O)CC2C2(C)CCCC(C)(CO)C12 (stereo not drawn) : what was it? inactive

Assay outcome for CO[C@H]1/C=C/C=C/C=C/C[C@H](OC(=O)[C@@H](C)NC(=O)C2CCCCC2)[C@H](C)[C@@H](O)/C(C)=C/CCc2cc(O)cc(c2)NC(=O)C1 : what was it? active

Assay outcome for COc1c2cc(c(O)c1OC)-c1cc(ccc1O)CCC(O)CCCC2 (stereo not drawn) : what was it? inactive

Assay outcome for C=CC(=O)N1CCN(C(=O)CNc2cc(I)c(Cl)cc2O)CC1 : what was it? active

Assay outcome for COc1ccc(C(=O)Nc2ncc(-c3ccc(C(=O)O)cc3)s2)cc1 : what was it? active

Assay outcome for COc1cc2ncnc(Nc3cccc(O)c3)c2cc1OC : what was it? inactive

Assay outcome for O=C(CN1C(=O)C2(CCCC2)NCC1c1cc(F)cc(F)c1)Nc1ccc2c(c1)CC1(C2)C(=O)Nc2ncccc21 (stereo not drawn) : what was it? inactive

Assay outcome for COc1c2c(c(C)c3c1C(=O)OC3)O[C@@]1(C)CC(O)C(C(C)(C)O)[C@](C)(CCC(=O)O)[C@H]1C2 (stereo partly drawn) : what was it? inactive

Assay outcome for C=C(C(=O)O)C1CCC2(C)CCC(O)C(=C)C2C1 (stereo not drawn) : what was it? inactive

Assay outcome for NC(=O)c1csc(C2OC(CO)C(O)C2O)n1 (stereo not drawn) : what was it? inactive

Assay outcome for CC(=O)c1c(O)cc(O[C@@H]2O[C@H](CO)[C@@H](O)[C@H](O)[C@H]2O)cc1O : what was it? inactive

Assay outcome for C=C1C(=O)O[C@@H]2/C=C(\C)C(=O)/C=C/[C@](C)(O)C[C@@H](OC(=O)C(C)C)[C@@H]12 : what was it? active

Assay outcome for O=C(/C=C\n1cnc(-c2cc(C(F)(F)F)cc(C(F)(F)F)c2)n1)N1CC(F)(F)C1 : what was it? active

Assay outcome for O=C(CC(c1ccccc1)c1ccccc1)N1CCN(C(c2ccccc2)c2ccccc2)CC1 : what was it? active

Assay outcome for CC(CO)C1CCC2(C)CC3C(CO)CC(O)C3C(C)(O)C/C=C/12 (stereo not drawn) : what was it? inactive

Assay outcome for CS(=O)(=O)c1ccc([C@H](CC2CCCC2)C(=O)Nc2nccs2)cc1 : what was it? inactive

Assay outcome for O=C(CC1C(=O)Nc2ccccc21)OC[C@H]1O[C@@H](OCCc2ccc(O)cc2)[C@H](O)[C@@H](O)[C@@H]1O (stereo partly drawn) : what was it? inactive

Assay outcome for FC(F)(F)c1ccc(Nc2nc(-c3c(C(F)(F)F)nc4ccccn34)cs2)cc1 : what was it? active

Assay outcome for Cc1cc(O)c(-c2ccc([C@@H](C)CN(C)C)cc2)c2c1[nH]c(=O)c1sccc12 : what was it? active
